Origin of the recorded values: paper PMC5540273

System: TIE2
Construct: gene TEK
Details: concentration: 1 μM,replicates: in singlicate; n = 1;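 further: KINOMEscan kinase panel screen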
ENDPOINT: %Inh (%)

> print(dat)
                                   molecule  unit  reported
1  CNC(=O)c1ccccc1Nc1nc(Nc2cccc(CS(C)(=O)=O)c2)ncc1C.O=CO [GSK1520489]     %        95
2  CN(c1ccc2c(c1)nc(NCc1ccc(F)cc1)n2C)c1ccnc(Nc2ccc(CS(C)(=O)=O)cc2)n1.Cl [GW813244]     %        37
3  O=C(Nc1n[nH]c2cc(-c3ccco3)ccc12)C1CC1 [SB-737447]     %         3
4  COc1cccc(OC)c1C(=O)Nc1cccc(-c2nn3ccccc3c2-c2ccnc(Nc3cccc(F)c3)n2)c1 [GSK361065]     %        12

###

System: BTK
Conditions: concentration: 1 μM,replicates: in singlicate; n = 1
ENDPOINT: %Inh

> print(dat)
                                   molecule  reported
1  O=C(Nc1cccc(Oc2ccc3nccn3n2)c1)Nc1cccc(C(F)(F)F)c1        0%
2            CCn1c(-c2nonc2N)nc2cncc(Br)c21       47%
3  Cc1ccc2c(-c3ccnc(Nc4ccc(C(F)(F)F)cc4)n3)cnn2n1        0%
4  c1ccc(Oc2ccc(Nc3ccnc4ccc(-c5ccccn5)cc34)cc2)cc1       61%
5  COc1cc2c(Nc3ccc(NC(=O)c4ccccc4)cc3)ncnc2cc1OCCCN1CCOCC1        0%
6  CCn1c(-c2nonc2N)nc2cncc(CNC3CCNCC3)c21.Cl       14%
7                 CCCC(=O)Nc1n[nH]c2ncccc12        0%
8  N#Cc1cccc(C(=O)NC2CCN(c3ccnc(Nc4ccc(F)cc4)n3)C2)c1 (stereo not drawn)        0%
9  CCNCC(Cc1ccccc1)NC(=O)c1cc(Br)c(-c2ccnc3[nH]ccc23)s1.Cl.Cl (stereo not drawn)        0%

###

System: HCK
Details: concentration: 1 μM,replicates: in singlicate; n = 1
ENDPOINT: %Inh

> print(dat)
                                    molecule  reported
 1  O=C(NOCC1CC1)c1cc(Br)c(F)c(F)c1Nc1ccc(I)cc1Cl        8%
 2            CCn1c(-c2nonc2N)nc2cncc(Br)c21        3%
 3  Cn1ccc2ncnc(Oc3ccc(NC(=O)Nc4cncc(C(F)(F)F)c4)c(Cl)c3)c21       14%
 4  CCn1c(-c2nonc2N)nc2cncc(CNC3CCNCC3)c21.Cl        0%
 5  Cn1ccc2ncnc(Oc3ccc(NC(=O)Nc4cc(C(C)(C)C)on4)c(Cl)c3)c21       66%
 6  Cc1ccn2nc(-c3ccc(F)cc3)c(-c3ccncc3)c2c1.Cl       10%
 7  COc1cccc(CNC(=O)NC2CCN(c3ccnc(Nc4cc(OC)c(OC)c(OC)c4)n3)C2)c1 (stereo not shown)       12%
 8  c1ccc(Oc2ccc(Nc3ccnc4ccc(-c5ccccn5)cc34)cc2)cc1       71%
 9  CS(=O)c1ccc(-c2coc3ccc(-c4n[nH]c(=O)o4)cc23)cc1 (stereo not shown)        0%
10  COc1cc2nccc(Nc3ccc(Oc4ccccc4)cc3)c2cc1OC.Cl     97.6%
11  Cl.c1ccc(Oc2ccc(Nc3ccnc4cc(-c5ccc(CN6CCNCC6)o5)ccc34)cc2)nc1       84%
12  FC(F)(F)c1cc(Br)cc(Nc2nccc(-c3cnn4ncccc34)n2)c1       12%
13  C[C@@H]1CNc2c(sc3ccc4nc(-c5ccncc5)ccc4c23)C(=O)N1       21%
14  CN(c1ccccc1CNc1nc(Nc2ccc3c(c2)CC(=O)N3)ncc1C(F)(F)F)S(C)(=O)=O        3%
15  Cn1ccc2ncnc(Oc3ccc(NC(=O)Nc4ccnc(C(F)(F)F)c4)c(Cl)c3)c21        0%
16  O=C(Nc1cccc(Oc2ccc3nccn3n2)c1)Nc1cccc(C(F)(F)F)c1       27%
